EXPERIMENT_NOTES: Biodistribution of Al^18F(IMP485) alone or TF2 pretargeted
CONDITION_NOTES: nude (Taconic), mouse, in vivo, iv, 28 uCi, total radioactivity
Procedure: Mice were necropsied at 1 and 3 h post injection, 7 mice per time point. Biodistribution studies were performed in Taconic nude mice bearing subcutaneous LS174T tumor xenografts. Mice were necropsied at 1 and 3 h post injection, 6 mice per time point.
VALUE_TYPE: tissue uptake at 1 h (%ID/g)
Reply with just the number (in %ID/g).

Item under review: NC(=O)[C@@H](CCCCNC(=O)CNC(=O)CCC(=O)NCCc1c[nH]cn1)NC(=O)[C@@H](Cc1ccc(O)cc1)NC(=O)[C@@H](CCCCNC(=O)CNC(=O)CCC(=O)NCCc1c[nH]cn1)NC(=O)Cc1ccc(CN2CCN(CC(=O)O)CCN(CC(=O)O)CC2)cc1 [Al^18F(IMP485)] . Reported tissue uptake at 1 h?
0.114
